Where these numbers come from: PubChem BioAssay

We begin with a simple list: items and their reported inhibition.
- measurement target: PEG-3 (UniProt Q6IN02)
- Sequence (Q6IN02 whole entry, looked up): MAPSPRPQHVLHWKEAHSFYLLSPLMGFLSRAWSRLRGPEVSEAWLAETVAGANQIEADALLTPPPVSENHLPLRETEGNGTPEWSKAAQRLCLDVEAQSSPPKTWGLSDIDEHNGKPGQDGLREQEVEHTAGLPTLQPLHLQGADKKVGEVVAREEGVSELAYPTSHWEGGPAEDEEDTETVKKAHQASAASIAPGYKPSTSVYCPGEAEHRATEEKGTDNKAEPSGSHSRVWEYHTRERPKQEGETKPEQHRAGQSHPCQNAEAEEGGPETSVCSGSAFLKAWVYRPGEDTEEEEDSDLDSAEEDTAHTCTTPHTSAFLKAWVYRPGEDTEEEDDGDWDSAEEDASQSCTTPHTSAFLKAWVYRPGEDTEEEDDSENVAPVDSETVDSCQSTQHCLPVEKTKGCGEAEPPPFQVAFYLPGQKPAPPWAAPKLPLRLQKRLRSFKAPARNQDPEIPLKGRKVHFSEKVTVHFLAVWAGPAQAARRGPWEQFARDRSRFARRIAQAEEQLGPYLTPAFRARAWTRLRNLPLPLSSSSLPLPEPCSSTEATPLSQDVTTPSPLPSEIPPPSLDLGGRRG
- test method notes: Peg3 promoter luciferase inhibitors, potency, dose response, cell-based, HeLa, CREF/GAPDH counter-screen panel (AID 624167)
- test settings: CREF/GAPDH counter-screens; HeLa PEG-Prom luciferase reporter, overnight, run 2, dose range 1, at 100 µM (top of the series) unless noted
Quick note: give the figure in %, leave out the unit.

Guide cases for inhibition, answers given:
Req: Entry O=c1c2ccccc2sc2nc(CCl)nn12 has what inhibition?
Resp: 102

Req: Entry COc1ccc(C(=O)NNC(=O)c2ccccn2)cc1 has what inhibition?
Resp: 95.9

Others:
Req: Entry O=c1c2ccccc2sc2ccc(C#CC3(O)CCCCC3)cc12 has what inhibition?
Resp: 98

Req: Entry COc1ccc(C2c3c(ncn(CCCN4CCOCC4)c3=N)Oc3ccc4ccccc4c32)cc1OC (configuration not stated) has what inhibition?
Resp: 100

Req: Entry Cc1cccc(CN2C(=O)[C@H]3Cc4c([nH]c5ccccc45)C(C)(C)N3C2=O)c1 has what inhibition?
Resp: 101

Req: Entry CCCCN(C)C(=O)c1ccc(Nc2nc(C(N)CCc3ccccc3)cs2)nc1 (configuration not stated) has what inhibition?
Resp: 94.6

Req: Entry Cc1ccc2nc(-c3ccc(Br)cc3)cn2c1 has what inhibition?
Resp: 88.9

Req: Entry Oc1ccc(C23CCCC2C2(CCCC2)c2ccc(O)cc2O3)c(O)c1 (configuration not stated) has what inhibition?
Resp: 95.5

Req: Entry COc1ccc(OCc2cccc(C(=O)O)c2)cc1 has what inhibition?
Resp: 102

Req: Entry Cc1ccc(-n2[nH]c(=O)c(-c3ccccn3)c2C)cc1 has what inhibition?
Resp: 90.3

Req: Entry Oc1[nH]c2ccc(Br)cc2c1N=NC(=S)N1CCOCC1 has what inhibition?
Resp: 99

Req: Entry C/C(=N\N=C(N)N)c1ccc(Cl)c(Cl)c1 has what inhibition?
Resp: 101

Req: Entry COc1ccc(CN(C)C(=O)C(Cc2ccccc2)NC(=O)c2ccccc2)cc1F (configuration not stated) has what inhibition?
Resp: 98.2

Req: Entry Cc1cc(C)c2sc(N(CCCN(C)C)C(=O)c3ccc(S(=O)(=O)N(C)Cc4ccccc4)cc3)nc2c1 has what inhibition?
Resp: 101

Req: Entry O=C(NNC(=O)c1cccnc1SCc1cccc([N+](=O)[O-])c1)c1ccccn1 has what inhibition?
Resp: 56.6

Req: Entry CC(=O)N1CCCC(c2cc(C(=O)Nc3ccccc3)no2)C1 (configuration not stated) has what inhibition?
Resp: 90.2

Req: Entry O=C(COc1ccc2c(c1)CCC2)Nc1ccccn1 has what inhibition?
Resp: 94.2

Req: Entry CNC[C@H](CC1CCCCC1)NC[C@H](NCCC1CCCC1)[C@H](C)O has what inhibition?
Resp: 99.9

Req: Entry COc1cccc(/C=N/NC(=O)c2c(-c3ccccc3)noc2C)c1O has what inhibition?
Resp: 54.6

Req: Entry C=CCc1cccc(/C=N/NC(=O)C(C)Nc2cccc(C)c2)c1O (configuration not stated) has what inhibition?
Resp: 62

Req: Entry COc1ccc(C[C@H]2CN3C(=NC[C@@H]3Cc3ccc(O)cc3)N2C[C@H](C)NC(=O)c2ccc(C)c(Br)c2)cc1 has what inhibition?
Resp: 102

Req: Entry COc1ccc(CN(C)C(=O)c2cc(-c3ccccc3)nc3ccc(C)cc23)c(OC)c1OC has what inhibition?
Resp: 96.5
